For each record, write down the corresponding inhibition at 10 µM.
tested on: primary human fibroblasts derived from IPF patients (LL29 cells) treated with TGF-β1; assay: Inhibition of the fibrotic process: αSMA staining in TGF-β1 treated LL29 fibroblasts; assay type: cell-based; conditions: Fibroblast, read-out: percent inhibition at 10 μM
Please give a number only; it is taken to be in %.

Problem: Quickly give me recorded inhibition at 10 µM for CC(C)CC(=O)Nc1cncc(-c2ccc3[nH]nc(-c4cc5c(-c6ccc(F)cc6)ccnc5[nH]4)c3c2)c1
Result: 20.2

Problem: Give me measured inhibition at 10 µM, please, for this compound: O=C(Nc1cncc(-c2ccc3[nH]nc(-c4cc5c(-c6ccncc6)ccnc5[nH]4)c3c2)c1)c1ccccc1
Result: 49.2

Problem: Consider the compound CC(C)(C)C(=O)Nc1cncc(-c2ccc3[nH]nc(-c4cc5c(-c6ccncc6)ccnc5[nH]4)c3c2)c1 and give its recorded inhibition at 10 µM.
Result: 12.8

Problem: # return recorded inhibition at 10 µM for input CN(C)CCOc1cncc(-c2ccc3[nH]nc(-c4cc5c(-c6ccc(F)cc6)ccnc5[nH]4)c3c2)c1
Result: 15.6

Problem: Give the reported inhibition at 10 µM for this compound. CC(C)Nc1cncc(-c2ccc3[nH]nc(-c4cc5c(-c6cccnc6)ccnc5[nH]4)c3c2)c1
Result: 10

Problem: // Input: CC(C)Nc1cncc(-c2ccc3[nH]nc(-c4cc5c(-c6ccccc6F)ccnc5[nH]4)c3c2)c1 . Output its inhibition at 10 µM only.
Result: 0

Problem: Consider the compound CCCCC(=O)Nc1cncc(-c2ccc3[nH]nc(-c4cc5c(-c6ccncc6)ccnc5[nH]4)c3c2)c1 . State its measured inhibition at 10 µM.
Result: 6.3

Problem: Provide measured inhibition at 10 µM value, entry: CCNCc1cncc(-c2ccc3[nH]nc(-c4cc5c(-c6cccnc6)ccnc5[nH]4)c3c2)c1
Result: 0

Problem: Look up and report measured inhibition at 10 µM for this entry: Fc1ccc(-c2ccnc3[nH]c(-c4n[nH]c5ccc(-c6cncnc6)cc45)cc23)cc1
Result: 7.3

Problem: Provide measured inhibition at 10 µM value, entry: Fc1cccc(-c2ccnc3[nH]c(-c4n[nH]c5ccc(-c6ccncc6)cc45)cc23)c1
Result: 33.6

Problem: State its inhibition at 10 µM: CC(C)CC(=O)Nc1cncc(-c2ccc3[nH]nc(-c4cc5c(-c6cccnc6)ccnc5[nH]4)c3c2)c1
Result: 25.9

Problem: Quickly give me recorded inhibition at 10 µM for Cc1ccncc1-c1ccc2[nH]nc(-c3cc4c(-c5ccoc5)ccnc4[nH]3)c2c1
Result: 36.3

Problem: Please look at this compound and report its inhibition at 10 µM: Fc1cccc(-c2ccnc3[nH]c(-c4n[nH]c5ccc(-c6ccccn6)cc45)cc23)c1
Result: 12

Problem: Provide measured inhibition at 10 µM value, entry: O=C(Nc1cncc(-c2ccc3[nH]nc(-c4cc5c(-c6ccc(F)cc6)ccnc5[nH]4)c3c2)c1)C1CCC1
Result: 3.2

Problem: Tell us which inhibition at 10 µM value is on record for O=C(Nc1cncc(-c2ccc3[nH]nc(-c4cc5c(-c6cccnc6)ccnc5[nH]4)c3c2)c1)C1CCCCC1
Result: 41.7

Problem: Identify inhibition at 10 µM associated with the compound Cc1ccncc1-c1ccc2[nH]nc(-c3cc4c(-c5ccncc5)ccnc4[nH]3)c2c1
Result: 44.2

Problem: # return recorded inhibition at 10 µM for input CC(C)(C)CC(=O)Nc1cncc(-c2ccc3[nH]nc(-c4cc5c(-c6ccccc6F)ccnc5[nH]4)c3c2)c1
Result: 5.4

Problem: For the compound CN(C)c1cncc(-c2ccc3[nH]nc(-c4cc5c(N6CCCCC6)ccnc5[nH]4)c3c2)c1 , report inhibition at 10 µM.
Result: 11.3

Problem: Look up inhibition at 10 µM of O=C(Nc1cncc(-c2ccc3[nH]nc(-c4cc5c(-c6ccccn6)ccnc5[nH]4)c3c2)c1)C1CCCCC1 and report it.
Result: 0

Problem: Item CN(C)Cc1cncc(-c2ccc3[nH]nc(-c4cc5c(-c6ccncc6)ccnc5[nH]4)c3c2)c1 : provide inhibition at 10 µM
Result: 0

Problem: Report inhibition at 10 µM for CN1CCN(c2ccnc3[nH]c(-c4n[nH]c5ccc(-c6cncc(NC(=O)CC7CCNCC7)c6)cc45)cc23)CC1
Result: 23.5

Problem: Provide one value: measured inhibition at 10 µM of CN(C)c1cncc(-c2ccc3[nH]nc(-c4cc5c(-c6ccccn6)ccnc5[nH]4)c3c2)c1
Result: 34

Problem: Give reported inhibition at 10 µM value for c1cc(-c2ccnc3[nH]c(-c4n[nH]c5ccc(-c6cn[nH]c6)cc45)cc23)ccn1
Result: 28.3

Problem: Please give measured inhibition at 10 µM of the following entry: O=C(Nc1cncc(-c2ccc3[nH]nc(-c4cc5c(N6CCCCC6)ccnc5[nH]4)c3c2)c1)C1CC1
Result: 17.4
